target: human TLR7 (Homo sapiens, UniProt Q9NYK1); construct: host or cells: HEK-Blue cells; assay: TLR7 inhibition reporter assay (HEK-Blue SEAP reporter, gardiquimod stimulation); format: cell-based; details: HEK-Blue cells overexpressing human TLR7, SEAP reporter, gardiquimod 7.5 μM, 22 hour incubation
quantity name: pIC50
Friendly reminder that pIC50 comes from taking -log10 of the concentration in mol/L.

Guide cases for pIC50, answers given:
[[record]]
molecule = "Cc1cc(-c2[nH]c3ccc(C4CCN(CC(=O)N(C)C)CC4)cc3c2C(C)C)cn(Cc2ccccc2)c1=O"
recorded_measurement = 8.15

[[record]]
molecule = "Cc1ccc(-c2cc(-c3[nH]c4ccc(C5CCNCC5)cc4c3C(C)C)cn(C)c2=O)cc1"
recorded_measurement = 7.86

[[record]]
molecule = "CC(=O)NC1CCC(N2CCC(c3ccc4[nH]c(-c5cc(C)c(=O)n(C)c5)c(C(C)C)c4c3)CC2)CC1 (stereo not drawn)"
recorded_measurement = 8.24

[[record]]
molecule = "Cc1c(-c2[nH]c3ccc(C4CCN(CC(C)C)CC4)cc3c2C(C)C)cn(C)c(=O)c1Cl"
recorded_measurement = 8.21

[[record]]
molecule = "CCCN1CCC(c2ccc3[nH]c(-c4cc(-c5cncc(C)c5)c(=O)n(C)c4)c(C(C)C)c3c2)CC1"
recorded_measurement = 8.31

[[record]]
molecule = "Cc1cc(-c2[nH]c3ccc(C4CCN(CC(=O)N(C)C)CC4)cc3c2C(C)C)cn(C)c1=O"
recorded_measurement = 8.55

[[record]]
molecule = "COc1cc(-c2[nH]c3ccc(C4CCN(C5CCOCC5)CC4)cc3c2C(C)C)cn(C)c1=O"
recorded_measurement = 8.40

[[record]]
molecule = "Cc1cc(-c2[nH]c3ccc(C4CCN(CC(C)(C)O)CC4)cc3c2C(C)C)cn(CC(C)C)c1=O"
recorded_measurement = 7.31

[[record]]
molecule = "COc1cc(-c2[nH]c3ccc(C4CCN(C(=O)CN(C)C)CC4)cc3c2C(C)C)c(C)n(C)c1=O"
recorded_measurement = 6.71

[[record]]
molecule = "Cc1c(-c2[nH]c3ccc(C4CCN(CCC(C)C)CC4)cc3c2C(C)C)cn(C)c(=O)c1Cl"
recorded_measurement = 8.59


Requested read-out: pIC50. Entry: Cc1c(-c2[nH]c3ccc(C4CCN(S(=O)(=O)CCN5CCCC5)CC4)cc3c2C(C)C)cn(C)c(=O)c1Cl
8.70

Which measured pIC50 value corresponds to Cc1cc(-c2[nH]c3ccc(C4CCN(C)CC4)cc3c2C(C)C)nn(C)c1=O ?
8.16

Which value of pIC50 has been reported for CC(C)c1c(-c2cn(C)c(=O)n(C)c2=O)[nH]c2ccc(C3CCNCC3)cc12 in the records?
6.98

Form field: reported pIC50 of Cc1c(-c2[nH]c3ccc(C4CCN(C5CCOCC5)CC4)cc3c2C(C)C)cn(C)c(=O)c1C
7.72

Which measured pIC50 value corresponds to COCCN1CCC(c2ccc3[nH]c(-c4cc(-c5ccc(C)nc5)c(=O)n(C)c4)c(C(C)C)c3c2)CC1 ?
7.84

Would you mind telling me what pIC50 value was observed for CCCN1CCC(c2ccc3[nH]c(-c4cc(-c5cnc(C)nc5)c(=O)n(C)c4)c(C(C)C)c3c2)CC1 ?
8.74

Can you share its pIC50? I mean this molecule: COCCn1cc(-c2[nH]c3ccc(C4CCN(C(=O)CN(C)C)CC4)cc3c2C(C)C)cc(C)c1=O
8.11

For CC(C)c1c(-c2cc(Cl)c(=O)n(C)c2)[nH]c2ccc(C3CCNCC3)cc12 , what is its reported pIC50?
8.96

Using the record for CNC(C)(C)C(=O)N1CCC(c2ccc3[nH]c(-c4cc(C)c(=O)n(C)c4)c(C(C)C)c3c2)CC1 , report its pIC50.
6.77

Fill in: pIC50 of CC(C)c1c(-c2cc(-c3cccnc3)c(=O)n(C)c2)[nH]c2ccc(C3CCNCC3)cc12 is ___
8.17

Entry under review: COCCCN1CCC(c2ccc3[nH]c(-c4cn(C)c(=O)c(Cl)c4C)c(C(C)C)c3c2)CC1 . Reported pIC50?
8.15

pIC50 for COc1c(C)c(-c2[nH]c3ccc(C4CCN(C5COC5)CC4)cc3c2C(C)C)cn(C)c1=O ?
7.18

May I ask what pIC50 has been recorded for Cc1cc(-c2[nH]c3ccc(C4CCNCC4)cc3c2C(C)C)cn(C2CCOC2)c1=O (stereo not drawn) ?
7.39

Reported pIC50 for Cc1cc(-c2[nH]c3ccc(C4CCN(CC(=O)N5CCCC5)CC4)cc3c2C(C)C)cn(C)c1=O : what is it?
8.31

So what does the record say about pIC50 for Cc1c(-c2[nH]c3ccc(C4CCN(C(=O)CN(C)C)CC4)cc3c2C(C)C)cn(C)c(=O)c1C#N ?
6.74

Dear colleague, I am looking for the recorded pIC50 of the following molecule: Cc1cc(-c2[nH]c3ccc(C4CCN(C5CCC(C(C)(C)O)CC5)CC4)cc3c2C(C)C)cn(C)c1=O (stereo not drawn) [Example 268]
8.62

---

# pIC50 annotations
biological target: human TLR8 (Homo sapiens, UniProt Q9NR97); construct: host or cells: HEK-Blue cells; assay: TLR8 inhibition reporter assay (HEK-Blue SEAP reporter, R848 stimulation); format: cell-based; conditions: HEK-Blue cells overexpressing human TLR8, SEAP reporter, R848 15.9 μM, 22 hour incubation
Sequence (Q9NR97 27-1041): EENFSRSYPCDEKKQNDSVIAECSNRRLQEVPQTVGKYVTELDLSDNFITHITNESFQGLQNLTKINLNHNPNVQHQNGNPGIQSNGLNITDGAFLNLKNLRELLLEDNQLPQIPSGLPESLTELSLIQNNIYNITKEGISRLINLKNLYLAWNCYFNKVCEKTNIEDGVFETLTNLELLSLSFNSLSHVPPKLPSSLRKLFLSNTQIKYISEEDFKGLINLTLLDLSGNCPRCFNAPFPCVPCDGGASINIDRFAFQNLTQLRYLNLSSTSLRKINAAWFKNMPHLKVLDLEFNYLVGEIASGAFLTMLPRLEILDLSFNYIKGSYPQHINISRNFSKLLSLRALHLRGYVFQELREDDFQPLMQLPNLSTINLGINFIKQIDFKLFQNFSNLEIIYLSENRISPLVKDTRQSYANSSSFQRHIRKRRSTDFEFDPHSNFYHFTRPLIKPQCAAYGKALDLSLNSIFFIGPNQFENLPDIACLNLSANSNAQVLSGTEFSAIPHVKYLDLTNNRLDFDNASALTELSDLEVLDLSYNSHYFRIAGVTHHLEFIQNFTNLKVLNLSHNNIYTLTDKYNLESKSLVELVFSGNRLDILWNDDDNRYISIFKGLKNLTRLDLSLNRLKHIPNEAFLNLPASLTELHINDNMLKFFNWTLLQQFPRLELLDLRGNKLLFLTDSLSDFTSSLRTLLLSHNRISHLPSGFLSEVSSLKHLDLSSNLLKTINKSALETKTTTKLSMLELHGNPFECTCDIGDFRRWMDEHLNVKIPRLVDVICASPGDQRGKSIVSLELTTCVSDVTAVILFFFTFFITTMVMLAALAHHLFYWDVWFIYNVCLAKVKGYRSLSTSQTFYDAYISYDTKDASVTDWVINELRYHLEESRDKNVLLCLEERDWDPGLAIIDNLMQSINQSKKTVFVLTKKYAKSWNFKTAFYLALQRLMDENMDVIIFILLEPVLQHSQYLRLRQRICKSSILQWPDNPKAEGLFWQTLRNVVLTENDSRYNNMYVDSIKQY
Kindly note that pIC50 refers to -log10 of the concentration in mol/L and answer with the value alone.

[[record]]
compound = "CNC(=O)CN1CCC(c2ccc3[nH]c(-c4cc(C)c(=O)n(CC(C)C)c4)c(C(C)C)c3c2)CC1"
quantity_name = "pIC50"
recorded_measurement = 6.62


Tell me the measured pIC50 of Cc1c(-c2[nH]c3ccc(C4CCN(C5COC5)CC4)cc3c2C(C)C)nn(C)c(=O)c1C , please.
7.54

Fill blank: measured pIC50 of the compound COCc1cc(-c2[nH]c3ccc(C4CCN(C(C)C)CC4)cc3c2C(C)C)cn(C)c1=O is ____.
7.54

---

target: human TLR8 (Homo sapiens, UniProt Q9NR97); assay: TLR8 inhibition reporter assay (HEK-Blue SEAP reporter, R848 stimulation); details: HEK-Blue cells overexpressing human TLR8, SEAP reporter, R848 15.9 μM, 22 hour incubation
// reported pIC50 per item
Scale explanation: pIC50 corresponds to minus log10 of a concentration expressed in moles per litre.

Guide cases for pIC50, answers given:
[[record]]
compound = "CNC(=O)CN1CCC(c2ccc3[nH]c(-c4cc(C)c(=O)n(Cc5ccccc5)c4)c(C(C)C)c3c2)CC1"
quantity_name = "pIC50"
recorded_measurement = 7.00

[[record]]
compound = "Cc1c(-c2[nH]c3ccc(C4CCN(CC5CCOC5)CC4)cc3c2C(C)C)cn(C)c(=O)c1Cl (stereo not shown) [Example 254]"
quantity_name = "pIC50"
recorded_measurement = 8.68

[[record]]
compound = "CC(C)c1c(-c2cc(-c3cncnc3)c(=O)n(C)c2)[nH]c2ccc(C3CCN(C(C)C)CC3)cc12"
quantity_name = "pIC50"
recorded_measurement = 8.74


Here's the next entry for you.
Look up pIC50 for this compound: Cc1cc(-c2[nH]c3ccc(C4CCN(CCC(C(F)(F)F)C(F)(F)F)CC4)cc3c2C(C)C)cn(C)c1=O
7.27

---

Entries annotated with measured pIC50
Target: human TLR7 (Homo sapiens)
Construct: host or cells: HEK-Blue cells
Sequence (Q9NYK1 27-1049): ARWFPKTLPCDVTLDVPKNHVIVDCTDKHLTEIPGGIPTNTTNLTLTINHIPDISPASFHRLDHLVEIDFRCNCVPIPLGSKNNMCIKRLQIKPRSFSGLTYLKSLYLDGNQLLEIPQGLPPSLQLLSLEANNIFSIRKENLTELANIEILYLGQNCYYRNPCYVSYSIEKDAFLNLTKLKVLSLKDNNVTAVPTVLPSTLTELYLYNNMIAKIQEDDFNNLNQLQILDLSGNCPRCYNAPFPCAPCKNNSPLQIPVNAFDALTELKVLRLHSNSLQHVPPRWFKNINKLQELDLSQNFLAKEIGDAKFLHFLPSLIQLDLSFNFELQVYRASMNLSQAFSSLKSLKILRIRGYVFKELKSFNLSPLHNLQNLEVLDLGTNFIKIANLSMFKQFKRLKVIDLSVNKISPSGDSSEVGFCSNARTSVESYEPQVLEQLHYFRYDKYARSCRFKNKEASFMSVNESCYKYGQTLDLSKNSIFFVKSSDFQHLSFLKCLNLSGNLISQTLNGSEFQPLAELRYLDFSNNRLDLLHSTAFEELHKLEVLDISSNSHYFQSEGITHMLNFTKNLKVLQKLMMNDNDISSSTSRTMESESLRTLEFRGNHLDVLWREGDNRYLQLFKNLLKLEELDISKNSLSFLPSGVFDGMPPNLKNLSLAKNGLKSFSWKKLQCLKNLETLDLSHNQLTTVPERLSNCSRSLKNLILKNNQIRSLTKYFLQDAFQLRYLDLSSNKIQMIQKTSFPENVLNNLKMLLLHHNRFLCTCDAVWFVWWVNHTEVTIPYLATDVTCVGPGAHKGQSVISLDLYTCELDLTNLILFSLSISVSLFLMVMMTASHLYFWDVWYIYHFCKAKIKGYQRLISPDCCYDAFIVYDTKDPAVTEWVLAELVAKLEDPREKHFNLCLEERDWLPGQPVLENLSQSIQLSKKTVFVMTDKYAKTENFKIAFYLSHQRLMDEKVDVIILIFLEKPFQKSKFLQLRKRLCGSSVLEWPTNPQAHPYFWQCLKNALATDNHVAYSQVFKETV
Assay: TLR7 inhibition reporter assay (HEK-Blue SEAP reporter, gardiquimod stimulation)
Assay type: cell-based
Conditions: HEK-Blue cells overexpressing human TLR7, SEAP reporter, gardiquimod 7.5 μM, 22 hour incubation
The quantity pIC50 is defined as the negative base-10 logarithm of the molar concentration.

A selection of reference data follows.
[[record]]
compound = "Cc1cc(-c2[nH]c3ccc(C4CCN(C5CCC(C(F)(F)F)CC5)CC4)cc3c2C(C)C)cn(C)c1=O (stereo not shown) [Example 231]"
recorded_measurement = 8.15

[[record]]
compound = "Cc1cc(-c2[nH]c3ccc(C4CCNCC4)cc3c2C(C)C)nn(C)c1=O"
recorded_measurement = 8.28

[[record]]
compound = "Cc1cc(-c2[nH]c3ccc(C4CCN(C(C)C)CC4)cc3c2C(C)C)c(C)n(C)c1=O"
recorded_measurement = 7.86


Next, consider the following compound.
Give the measured pIC50 of CNC(=O)CN1CCC(c2ccc3[nH]c(-c4cc(OC)c(=O)n(C)c4C)c(C(C)C)c3c2)CC1 .
6.69
